B1: TBX5 (parent)
chain: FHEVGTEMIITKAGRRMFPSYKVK

Variants of: B1
EXPERIMENT_DESCRIPTION: protein stability index of a GFP-peptide fusion (GPS, HEK-293T) (PSI 1-6); higher = more stable;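 note: lentivirally expressed fusions sorted by FACS into six bins by GFP to DsRed ratio, PSI derived from sequencing read proportions per bin multiplied by bin number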
EXPERIMENTAL_CONDITIONS: c terminus: a fixed tail appended
Assignment: determine reported protein stability index for the given variants.
No unit in the answer, please; the number alone is enough.

For YHEVGTEMIITKAGRRMFPSYKVK [F1Y] , what is its reported protein stability index?
2.55

Entry FHEVGTEMIITKAGRRMFPSYFVK [K22F] has what protein stability index?
1.65

Suppose we examine the variant FHEVGGEMIITKAGRRMFPSYKVK [T6G] ; what protein stability index value has been reported?
2.9

Find the recorded protein stability index belonging to FHEVGTEMIITKDGRRMFPSYKVK [A13D] and report it.
2.57

Item under review: DHEVGTEMIITKAGRRMFPSYKVK [F1D] . Reported protein stability index?
3.1

Entry under review: FHTVGTEMIITKAGRRMFPSYKVK [E3T] . Reported protein stability index?
1.03

What value of measured protein stability index is listed for FHEVGTEMIITKAGRRMFPSYKPK [V23P] ?
2.8

Which measured protein stability index value corresponds to FHEVSTEMIITKAGRRMFPSYKVK [G5S] ?
2.76

Return reported protein stability index; argument: FHEVGTEMIITKAGRRMFPAYKVK [S20A]
1.89

Fill in the blank: the reported protein stability index of FHEVPTEMIITKAGRRMFPSYKVK [G5P] is ____.
2.05

Can you share its protein stability index? I mean this variant: FHEVGTEMIITKALRRMFPSYKVK [G14L]
1.71

Param item = FHEVMTEMIITKAGRRMFPSYKVK [G5M] ; retrieve measured protein stability index.
1.69

// protein stability index lookup, key: FYEVGTEMIITKAGRRMFPSYKVK [H2Y]
2.41

If you can, please state the reported protein stability index value of FHEVGPEMIITKAGRRMFPSYKVK [T6P] .
1.3

Item under review: FHEVGTEMIITGAGRRMFPSYKVK [K12G] . Reported protein stability index?
2.1

# protein stability index lookup, item FHEVGTEQIITKAGRRMFPSYKVK [M8Q]
2.06

Reported protein stability index, variant EHEVGTEMIITKAGRRMFPSYKVK [F1E] : ____
3.68

What value of protein stability index has been reported for the following variant? FHEVGTEMIITKAGRRMWPSYKVK [F18W]
1.8

Find the recorded protein stability index belonging to FHETGTEMIITKAGRRMFPSYKVK [V4T] and report it.
2.34

Quick one: protein stability index of FHEVGTEMIITKAGRRMFCSYKVK [P19C] ?
2.53

Entry FHEVGTEMIITKAGRRMFPSYYVK [K22Y] has what protein stability index?
2.89

Field request: protein stability index | item: FHEVGTEMIITKAGRRMFPSRKVK [Y21R]
3.16

# input variant: FHEVGTEMIITKAGRRMFPSYKVC [K24C] ; wanted: its protein stability index
2.62

Look up protein stability index: FHEVGTESIITKAGRRMFPSYKVK [M8S]
2.34

Entry FHEVGTWMIITKAGRRMFPSYKVK [E7W] has what protein stability index?
2.06

Look up protein stability index for this variant: FHEVGTEMIITKAGRRDFPSYKVK [M17D]
2.28

Please report the recorded protein stability index for FHEVGYEMIITKAGRRMFPSYKVK [T6Y] .
1.56

Give its protein stability index value. Item: FTEVGTEMIITKAGRRMFPSYKVK [H2T]
1.85

Dear colleague, I am looking for the recorded protein stability index of the following variant: FHEVGTEMRITKAGRRMFPSYKVK [I9R]
2.68

State the recorded protein stability index for this entry: FHEVGTEMIITKAGRRMRPSYKVK [F18R]
1.76

# protein stability index lookup, item FHEVGTEMIITKAGRRMFPSDKVK [Y21D]
2.64

Which protein stability index value is on record for FHEVGTECIITKAGRRMFPSYKVK [M8C] ?
2.09

Please give the measured protein stability index for this variant: FHEVGTEMIITKAGRRMFPSYKRK [V23R]
2.71

Fill in: protein stability index of FHEVGTEMIITKAGRRMFGSYKVK [P19G] is ___
2

What protein stability index value was documented for this variant, FHEVGTEMIITKAGRRMFPSYKVL [K24L] ?
1.99

Given FHEVGTEMIITYAGRRMFPSYKVK [K12Y] , state its recorded protein stability index.
2.91

Look up protein stability index for this variant: FHEVGTVMIITKAGRRMFPSYKVK [E7V]
1.84

I have this variant here, FKEVGTEMIITKAGRRMFPSYKVK [H2K] , and I need its recorded protein stability index.
2.24

What value of protein stability index has been reported for the following variant? LHEVGTEMIITKAGRRMFPSYKVK [F1L]
2.3

# protein stability index lookup, item FHEVGTEMITTKAGRRMFPSYKVK [I10T]
1.91

Reported protein stability index, variant FHEVGTEMIIPKAGRRMFPSYKVK [T11P] : ____
2.28

What value of protein stability index has been reported for the following variant? FHEGGTEMIITKAGRRMFPSYKVK [V4G]
2.32
